assay.details: A qHTS for Small Molecule Inhibitors of Shiga Toxin; also: 0% is about no effect
condition.description: Vero cells, Shiga toxin protein synthesis inhibition reporter; at 38.7 µM, active compounds read high
The whole screen tested about 290,000 compounds, of which about 27,000 (9.3%) were called active. The full list was thinned out, with actives kept by preference.
assay.endpoint: inhibition (%)

>  <compound>
CCc1ccc(NC(=O)CC2C(=O)NCCN2C(=S)Nc2ccccc2)cc1 (stereo not drawn)

>  <assay.endpoint>
inhibition

>  <reported.result>
1.19

$$$$
>  <compound>
CC(=O)Nc1cccc(/C(C)=N/NC(=O)c2ccccc2Cl)c1

>  <assay.endpoint>
inhibition

>  <reported.result>
22

$$$$
>  <compound>
O=C(CC1Nc2ccccc2NC1=O)Nc1ccccc1NC(=O)CC1Nc2ccccc2NC1=O (stereo not drawn)

>  <assay.endpoint>
inhibition

>  <reported.result>
73.6

$$$$
>  <compound>
CCN1CCN(c2ccc(S(=O)(=O)N3CCCCC3)cc2NC(=O)Cc2c(Cl)cccc2Cl)CC1

>  <assay.endpoint>
inhibition

>  <reported.result>
42.5

$$$$
>  <compound>
COc1ccc(N(C(=O)CNC(=O)c2ccco2)C(C(=O)NCC2CCCO2)c2ccccc2)cc1Cl (stereo not drawn)

>  <assay.endpoint>
inhibition

>  <reported.result>
15.8

$$$$
>  <compound>
COc1ccccc1OCC(=O)Nc1c2c(nn1-c1ccc(F)cc1)CS(=O)(=O)C2

>  <assay.endpoint>
inhibition

>  <reported.result>
-5.46

$$$$
>  <compound>
CCc1c(C)nc2cc(C)[nH]n2c1=O

>  <assay.endpoint>
inhibition

>  <reported.result>
0.52

$$$$
>  <compound>
Cn1c(Nc2ccccc2)cc(=O)n(C)c1=O

>  <assay.endpoint>
inhibition

>  <reported.result>
-6

$$$$
>  <compound>
CCOC(=O)c1ccccc1NC(=O)CC1Nc2ccccc2NC1=O (stereo not drawn)

>  <assay.endpoint>
inhibition

>  <reported.result>
-1.95

$$$$
>  <compound>
N#Cc1cccc(CN2CCC(=O)N([C@H](CO)c3ccccc3)CC2)c1

>  <assay.endpoint>
inhibition

>  <reported.result>
-4.45

$$$$
>  <compound>
CSCCC(NS(=O)(=O)c1ccccc1F)C(=O)N1CC=C(c2ccccc2)CC1 (stereo not drawn)

>  <assay.endpoint>
inhibition

>  <reported.result>
-9.3

$$$$
>  <compound>
CC(=O)N(Cc1cc(=O)[nH]c2ccccc12)c1ccc(C)cc1C

>  <assay.endpoint>
inhibition

>  <reported.result>
-8.12

$$$$
>  <compound>
CCN(CC)CCNCC(=O)Nc1ccc(Oc2ccccc2)cc1

>  <assay.endpoint>
inhibition

>  <reported.result>
3.13

$$$$
>  <compound>
CN1CCN(c2ccc(S(=O)(=O)N3CCCCC3)cc2NC(=O)Cc2ccccc2F)CC1

>  <assay.endpoint>
inhibition

>  <reported.result>
-8

$$$$
>  <compound>
C=CCc1c(C)nc2cc(-c3ccccc3)[nH]n2c1=O

>  <assay.endpoint>
inhibition

>  <reported.result>
45.5

$$$$
>  <compound>
CCc1cccc(C)c1NS(=O)(=O)c1cc(Br)cnc1N

>  <assay.endpoint>
inhibition

>  <reported.result>
-8.52

$$$$
>  <compound>
COC(=O)c1ccc2c(=O)n(CCN3CCOCC3)c(SCC(=O)Nc3cccc(OC)c3)nc2c1

>  <assay.endpoint>
inhibition

>  <reported.result>
-7.42

$$$$
>  <compound>
CCn1nc(C)c(/C=N/NC(=O)Cc2ccc(Cl)cc2)c1C

>  <assay.endpoint>
inhibition

>  <reported.result>
81.2

$$$$
>  <compound>
COc1ccccc1C(=O)N(Cc1ccc(C)o1)C1CCS(=O)(=O)C1 (stereo not drawn)

>  <assay.endpoint>
inhibition

>  <reported.result>
-7.17

$$$$
>  <compound>
O=C(NNC(=O)c1cccnc1)Nc1ccccc1

>  <assay.endpoint>
inhibition

>  <reported.result>
2.5

$$$$
>  <compound>
CCOc1ccc(NC(=O)CC2NCCNC2=O)cc1 (stereo not drawn)

>  <assay.endpoint>
inhibition

>  <reported.result>
13.1

$$$$
>  <compound>
O=C(CC1Nc2ccccc2NC1=O)Nc1ccccc1 (stereo not drawn)

>  <assay.endpoint>
inhibition

>  <reported.result>
38.2

$$$$
>  <compound>
CCOC(=O)/C(C#N)=C/c1ccc(N2CCN(Cc3ccccc3)CC2)cc1

>  <assay.endpoint>
inhibition

>  <reported.result>
32.9

$$$$
